target: T1, Dimeric Human Ang-2FD conjugated to human IgG1 (human)
T1 construct: also called Human Ang-2FD-hFc; hAng-2FD-hFc
T1 sequence (chain, as listed by the source limits assumed): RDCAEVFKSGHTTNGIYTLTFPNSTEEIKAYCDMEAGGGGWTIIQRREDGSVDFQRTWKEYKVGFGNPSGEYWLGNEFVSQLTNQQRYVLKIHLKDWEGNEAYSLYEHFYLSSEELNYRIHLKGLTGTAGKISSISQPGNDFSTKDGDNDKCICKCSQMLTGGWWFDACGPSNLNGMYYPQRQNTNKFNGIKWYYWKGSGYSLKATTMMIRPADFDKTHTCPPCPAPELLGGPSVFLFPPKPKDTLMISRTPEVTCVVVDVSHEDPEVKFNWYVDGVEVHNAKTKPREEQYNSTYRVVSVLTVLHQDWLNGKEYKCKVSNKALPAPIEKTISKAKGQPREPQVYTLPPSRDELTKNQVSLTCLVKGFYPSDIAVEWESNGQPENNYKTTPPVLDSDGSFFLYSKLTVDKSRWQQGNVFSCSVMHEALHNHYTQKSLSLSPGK
assayName: SPR, captured Ab, RT
Strictly below 0.2 nM in Kd: 1.0. Otherwise: 0.0.

Quick check: does H1M724N (antibody, V domains shown) VH: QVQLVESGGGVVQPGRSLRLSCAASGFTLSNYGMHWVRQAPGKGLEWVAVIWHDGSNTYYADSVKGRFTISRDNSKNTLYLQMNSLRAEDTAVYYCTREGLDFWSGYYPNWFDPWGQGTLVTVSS VL: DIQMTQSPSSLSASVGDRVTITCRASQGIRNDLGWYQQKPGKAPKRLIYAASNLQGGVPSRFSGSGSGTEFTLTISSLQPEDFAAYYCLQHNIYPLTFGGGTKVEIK have Kd under 0.2 nM? 1.0

Quick check: does H1M728N (antibody, V domains shown) VH: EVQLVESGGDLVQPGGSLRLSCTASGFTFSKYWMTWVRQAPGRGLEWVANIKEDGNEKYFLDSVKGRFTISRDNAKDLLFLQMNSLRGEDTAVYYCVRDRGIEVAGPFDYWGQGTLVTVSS VL: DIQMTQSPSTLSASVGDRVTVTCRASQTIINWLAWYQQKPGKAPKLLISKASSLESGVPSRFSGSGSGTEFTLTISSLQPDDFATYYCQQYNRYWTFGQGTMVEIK have Kd under 0.2 nM? 1.0

Quick check: does H2M742N (antibody, V domains shown) VH: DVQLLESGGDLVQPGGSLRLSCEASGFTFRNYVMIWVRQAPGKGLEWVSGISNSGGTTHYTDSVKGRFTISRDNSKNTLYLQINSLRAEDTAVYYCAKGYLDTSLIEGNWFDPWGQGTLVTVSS VL: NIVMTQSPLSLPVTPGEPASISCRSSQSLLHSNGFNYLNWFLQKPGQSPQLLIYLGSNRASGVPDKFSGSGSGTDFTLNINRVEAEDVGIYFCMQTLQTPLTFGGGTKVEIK have Kd under 0.2 nM? 0.0

Quick check: does H1H742N (antibody, V domains shown) VH: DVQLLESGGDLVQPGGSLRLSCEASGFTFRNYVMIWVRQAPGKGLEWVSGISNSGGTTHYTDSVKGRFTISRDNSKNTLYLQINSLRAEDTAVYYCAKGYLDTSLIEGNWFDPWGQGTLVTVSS VL: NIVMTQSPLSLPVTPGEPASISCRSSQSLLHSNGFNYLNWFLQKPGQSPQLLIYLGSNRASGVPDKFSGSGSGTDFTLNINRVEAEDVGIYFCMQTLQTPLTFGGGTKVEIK have Kd under 0.2 nM? 1.0

Quick check: does H1H744N (antibody, V domains shown) VH: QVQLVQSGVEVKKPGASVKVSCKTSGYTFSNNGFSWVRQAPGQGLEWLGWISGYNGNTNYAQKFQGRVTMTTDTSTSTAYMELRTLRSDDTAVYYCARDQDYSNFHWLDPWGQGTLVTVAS VL: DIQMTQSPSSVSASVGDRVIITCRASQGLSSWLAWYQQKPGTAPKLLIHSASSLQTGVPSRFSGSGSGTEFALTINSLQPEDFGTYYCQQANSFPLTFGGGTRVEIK have Kd under 0.2 nM? 1.0

Quick check: does H2M744N (antibody, V domains shown) VH: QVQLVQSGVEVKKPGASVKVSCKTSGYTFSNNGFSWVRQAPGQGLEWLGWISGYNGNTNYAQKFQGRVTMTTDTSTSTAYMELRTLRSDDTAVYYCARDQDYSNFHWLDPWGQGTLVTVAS VL: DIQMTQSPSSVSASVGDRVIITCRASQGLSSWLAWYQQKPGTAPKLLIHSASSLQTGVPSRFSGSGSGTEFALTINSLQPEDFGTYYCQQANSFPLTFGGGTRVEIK have Kd under 0.2 nM? 1.0

Quick check: does H1H743N (antibody, V domains shown) VH: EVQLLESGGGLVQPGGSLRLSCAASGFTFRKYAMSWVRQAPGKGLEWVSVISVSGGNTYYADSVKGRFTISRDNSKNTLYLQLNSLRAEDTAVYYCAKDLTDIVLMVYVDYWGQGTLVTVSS VL: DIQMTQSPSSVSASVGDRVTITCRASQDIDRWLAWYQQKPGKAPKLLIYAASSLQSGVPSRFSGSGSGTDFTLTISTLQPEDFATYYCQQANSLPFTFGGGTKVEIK have Kd under 0.2 nM? 1.0

Quick check: does H1H693P (antibody, V domains shown) VH: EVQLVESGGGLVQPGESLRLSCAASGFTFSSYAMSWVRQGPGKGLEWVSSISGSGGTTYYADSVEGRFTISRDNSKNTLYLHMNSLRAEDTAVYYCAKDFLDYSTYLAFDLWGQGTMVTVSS VL: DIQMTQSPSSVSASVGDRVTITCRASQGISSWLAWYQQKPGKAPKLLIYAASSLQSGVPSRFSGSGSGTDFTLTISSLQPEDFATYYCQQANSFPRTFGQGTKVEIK have Kd under 0.2 nM? 0.0

Quick check: does H2M730N (antibody, V domains shown) VH: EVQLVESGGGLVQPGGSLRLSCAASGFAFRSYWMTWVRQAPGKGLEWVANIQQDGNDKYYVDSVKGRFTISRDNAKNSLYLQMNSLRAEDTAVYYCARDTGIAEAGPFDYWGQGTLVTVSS VL: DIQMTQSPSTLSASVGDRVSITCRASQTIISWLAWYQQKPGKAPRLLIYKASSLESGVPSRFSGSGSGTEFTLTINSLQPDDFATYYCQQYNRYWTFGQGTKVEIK have Kd under 0.2 nM? 0.0

Quick check: does H2M743N (antibody, V domains shown) VH: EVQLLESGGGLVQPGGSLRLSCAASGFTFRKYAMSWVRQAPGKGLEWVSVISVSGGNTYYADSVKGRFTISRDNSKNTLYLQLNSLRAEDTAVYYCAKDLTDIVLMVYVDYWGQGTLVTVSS VL: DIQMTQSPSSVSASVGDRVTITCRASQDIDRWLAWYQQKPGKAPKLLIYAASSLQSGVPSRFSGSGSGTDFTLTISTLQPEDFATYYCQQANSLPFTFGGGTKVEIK have Kd under 0.2 nM? 1.0

// provenance: patent US20140112930A1
